Source listed as ChEMBL document CHEMBL3286333.

Quick list: pKi per entry.
# tested.system: Lysosomal acid glucosylceramidase (Homo sapiens, UniProt P04062)
# Sequence (P04062 whole entry): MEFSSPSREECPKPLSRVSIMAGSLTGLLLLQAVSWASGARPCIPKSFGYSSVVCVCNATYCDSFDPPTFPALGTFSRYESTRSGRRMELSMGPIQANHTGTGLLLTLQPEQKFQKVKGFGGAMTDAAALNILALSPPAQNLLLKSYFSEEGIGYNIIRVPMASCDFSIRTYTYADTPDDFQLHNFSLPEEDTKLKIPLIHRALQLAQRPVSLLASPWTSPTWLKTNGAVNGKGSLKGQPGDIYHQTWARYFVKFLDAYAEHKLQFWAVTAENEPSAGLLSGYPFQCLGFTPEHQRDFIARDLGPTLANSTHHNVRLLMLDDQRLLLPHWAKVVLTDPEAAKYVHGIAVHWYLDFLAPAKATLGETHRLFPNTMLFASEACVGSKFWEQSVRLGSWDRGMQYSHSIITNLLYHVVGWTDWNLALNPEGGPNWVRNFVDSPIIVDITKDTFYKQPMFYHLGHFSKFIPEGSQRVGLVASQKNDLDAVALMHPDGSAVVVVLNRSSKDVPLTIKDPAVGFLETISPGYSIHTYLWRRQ
# test.protocol: Inhibition of human lysosomal beta-glucocerebrosidase using 2,4-dinitrophenyl-beta-D-glucopyranoside as substrate by UV spectrophotometric analysis
pKi: −log10 of the molar value.
readout.name: pKi

>>> print(df.to_string())
                                smiles_data                             tested_system  result_number
0  CN(C)c1cccc2c(S(=O)(=O)NC[C@H]3NC[C@@H](O)[C@H](O)[C@H]3O)cccc12  Lysosomal acid glucosylceramidase (Homo sapiens, UniProt P04062)           8.12
1  N#C[C@H]1N[C@H](CO)[C@@H](O)[C@H](O)[C@H]1O  Lysosomal acid glucosylceramidase (Homo sapiens, UniProt P04062)           3.15
2       N#C[C@H]1NC[C@@H](O)[C@H](O)[C@H]1O  Lysosomal acid glucosylceramidase (Homo sapiens, UniProt P04062)           4.47
